# Study Target: Follistatin-related protein 3 (Homo sapiens)
# Protocol Summary: compounds binding follistatin-related protein 3 – biochemical, small-molecule microarray, 635 nm fluorescence, primary screen (AID 1105);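 also: score merges emission near 667 nm and signal to noise per printed spot across three slides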
# Measurement Parameters: FSTL3 binding, higher = more signal
Endpoint Label: composite z-score
Lab note: write the figure by itself, no unit.

Use these answered entries as a reference point.
- COC(=O)[C@]1(CCC(=O)OC(C)(C)C)N=C(c2ccc(OCCCO)cc2)O[C@@H]1c1ccccc1: -0.577
- CC(=O)NCCCC[C@@H]1NC(=O)[C@H]2C[C@@H](C(=O)O)[C@@H](c3ccc(O)cc3)N2C1=O: 1.44

Task: Name the reported composite z-score value associated with the molecule "CCCCC(=C=CC[C@H](O)c1cccc(OCCO)c1)C[C@H](O)c1ccccn1"
Output: 0.0048

Task: And for O=C1C2C=CC(C(O)c3cc(C(F)(F)F)cc(C(F)(F)F)c3)N(Nc3ccccc3)C2C(=O)N1c1ccccc1 (stereo not drawn) ?
Output: -0.154

Task: Similarly, "COC(=O)c1c(CC[C@@H](CO)NC(=O)N[C@H](Cc2ccccc2)Cn2cc(-c3ccccn3)nn2)oc(C(C)=O)c1C(=O)OC" ?
Output: -0.15

Task: Same thing, different molecule: "O=C1O[C@H](c2ccccc2)[C@H](c2ccccc2)N2[C@H]1[C@@H](C(=O)N1CCN(c3ncccn3)CC1)[C@]1(C(=O)Nc3ccc(C#CC4=CCCCC4)cc31)[C@H]2c1ccccc1OCCO"
Output: 1.31

Task: Try this molecule too: "C=CC[C@]1(C(N)=O)COC(c2ccc(OCCCO)cc2)=N1"
Output: -0.235

Task: One more molecule: "[N-]=[N+]=NCc1ccccc1[C@@H]1OC(c2ccc(OCCCO)cc2)=N[C@]1(CCS(=O)(=O)c1ccccc1)C(N)=O"
Output: 1.41

Task: Next molecule: "COC(=O)C(CC#Cc1ccc2c(c1)[C@]1(C(=O)N2)[C@H](c2ccccc2OCCO)N2[C@H](c3ccccc3)[C@H](c3ccccc3)OC(=O)[C@H]2[C@@H]1C(N)=O)C(=O)OC"
Output: 0.412

Task: // repeat for "CN(C)CCCCCCNC(=O)[C@@H]1C[C@@H]2C(=O)N3CCC[C@H]3C(=O)N2[C@@H]1c1ccc(O)cc1" and report
Output: 1.48

Task: Please give the result for "O=C(CS)NCCCCCNC(=O)[C@H]1C[C@H]2C(=O)NCC(=O)N2[C@H]1c1cccc(OCCO)c1" too.
Output: 0.101

Task: Let us now turn to "COC(=O)[C@@]1(Cc2ccc(OC)cc2)[C@H]2c3cc(C(=O)N(C)C)n(Cc4ccc(C(F)(F)F)nc4)c3C[C@H]2CN1C(=O)c1ccccc1"
Output: -0.015

Task: Moving on to the next molecule: NC(=O)N1C(=O)C2C(C1=O)C1C=C(CCCO)C2C(C2CC2)N1Cc1cc2c(cc1Br)OCO2 (stereo not drawn)
Output: -0.252

Task: Note, next up: CC1CC/C=C\[C@H]2OC34C=CCN(Cn5nnc6ccccc65)C(=O)[C@H]3N(CCCCCO)C(=O)[C@@H]4C2C(=O)O1 (stereo partly drawn)
Output: -0.186

Task: Param item: O=C1NC(=O)C2C1C=CC(C(O)c1ccc(-c3ccccc3)s1)N2Nc1ccc(Cl)cc1Cl (stereo not drawn)
Output: 0.992

Task: Moving on to CS(=O)(=O)CCOC(=O)C1=CC(CCCO)=CC(C2CC2)N(Cc2cc3c(cc2Br)OCO3)C=C1C(=O)OCCS(C)(=O)=O (stereo not drawn)
Output: 0.258

Task: Can you check "CC(C)(C)OC(=O)CC[C@]1(C(N)=O)N=C(c2ccc(OCCCO)cc2)O[C@H]1c1ccccc1" next?
Output: -0.188

Task: Entry to check: C=CCC(OC(C)=O)[C@@H]1[C@@H](N(Cc2cc3ccccc3o2)C(=O)Cc2ccc(OC)cc2)c2cc(OCCCO)ccc2N1C(=O)c1ccc2ccccc2c1 (stereo partly drawn)
Output: -0.0573
